Assay: Plasma pharmacokinetics (HPLC-MS/MS, non-compartmental)
Assay type: in vivo, human
Conditions: human, plasma; 1-hour IV infusion, across doses; read-out: Mean steady state volume of distribution (Vss)

- Molecule: "CC(C)c1cc(-c2n[nH]c(=O)n2-c2ccc3c(ccn3C)c2)c(O)cc1O [Ganetespib]"
  Vd, L: 196

---

Assay: Plasma pharmacokinetics (HPLC-MS/MS, non-compartmental)
Format: in vivo, human
Conditions: human, plasma; 1-hour IV infusion

- Entry Smiles: "CC(C)c1cc(-c2n[nH]c(=O)n2-c2ccc3c(ccn3C)c2)c(O)cc1O"
  Unit Text: "min"
  Tmax: 47.4

---

Test system: patients with advanced solid tumors
Test: Safety: adverse events (NCI CTCAE v3.0), ECG
Assay type: in vivo, human
Conditions: repeat ECG later on the same day
Assay Metric: QTc (ms)

- Compound: "CC(C)c1cc(-c2n[nH]c(=O)n2-c2ccc3c(ccn3C)c2)c(O)cc1O [Ganetespib]"
  Assay Metric: "QTc"
  Unit Text: "ms"
  Meas Value: 433

---

Tested on: patients with advanced solid tumors
Test: Safety: adverse events (NCI CTCAE v3.0), ECG
Assay type: in vivo, human
Settings: Cycle 1 Day 1 post-dose, patients with QTc prolongation

- Compound: "CC(C)c1cc(-c2n[nH]c(=O)n2-c2ccc3c(ccn3C)c2)c(O)cc1O [Ganetespib]"
  QTc (QT with Bazett correction), ms: 457

---

Test: Plasma pharmacokinetics (HPLC-MS/MS, non-compartmental)
Format: in vivo, human
Details: human, plasma; 1-hour IV infusion, across doses; read-out: Terminal t1/2 (mean ± SD) (converted)

- Compound: "CC(C)c1cc(-c2n[nH]c(=O)n2-c2ccc3c(ccn3C)c2)c(O)cc1O [Ganetespib]"
  half-life: "~7.54 h"
